Data origin: ChEMBL document CHEMBL3804806

Tested on: HaCaT
assay_comment: Antiproliferative activity against human HaCaT cells after 48 hrs by MTT assay
Format: cell-based
recorded_endpoint: IC50 (µM)
Answer with a number only, understood to be in µM.

Lookup: Any idea what its IC50 is? The molecule is O=C(/C=C\Nc1ccc(Cl)cc1)c1cn(-c2ccccc2)nc1-c1ccccc1
Found: 28.4

Lookup: Any idea what its IC50 is? The molecule is COc1ccc(-c2nn(-c3ccccc3)cc2C(=O)/C=C\Nc2ccc(Cl)cc2)cc1
Found: 20.9

Lookup: Any idea what its IC50 is? The molecule is COc1ccc(-c2nn(-c3ccccc3)cc2C(=O)/C=C\Nc2ccc(O)cc2)cc1
Found: 34.6

Lookup: Any idea what its IC50 is? The molecule is O=C(/C=C\Nc1ccc(Cl)cc1)c1cn(-c2ccccc2)nc1-c1ccc(F)cc1
Found: 21.3

Lookup: Any idea what its IC50 is? The molecule is COc1ccc(-c2nn(-c3ccccc3)cc2C(=O)/C=C\Nc2ccc(F)cc2)cc1
Found: 8.91

Lookup: Any idea what its IC50 is? The molecule is COc1ccc(N/C=C\C(=O)c2cn(-c3ccccc3)nc2-c2ccc(Cl)cc2)cc1
Found: 30.8

Lookup: Any idea what its IC50 is? The molecule is O=C(/C=C\Nc1ccc(F)cc1)c1cn(-c2ccccc2)nc1-c1ccccc1
Found: 34.2

Lookup: Any idea what its IC50 is? The molecule is O=c1[nH]cc(F)c(=O)[nH]1
Found: 16.1

Lookup: Any idea what its IC50 is? The molecule is COc1cc(N/C=C\C(=O)c2cn(-c3ccccc3)nc2-c2ccc(F)cc2)cc(OC)c1OC
Found: 32.8

Lookup: Any idea what its IC50 is? The molecule is O=C(/C=C\Nc1ccc(Cl)cc1)c1cn(-c2ccccc2)nc1-c1ccc(Cl)cc1
Found: 23.4

Lookup: Any idea what its IC50 is? The molecule is O=C(/C=C\Nc1ccc(O)cc1)c1cn(-c2ccccc2)nc1-c1ccc(F)cc1
Found: 16.3

Lookup: Any idea what its IC50 is? The molecule is COc1cc(N/C=C\C(=O)c2cn(-c3ccccc3)nc2-c2cc(OC)c(OC)c(OC)c2)cc(OC)c1OC
Found: 20.9

Lookup: Any idea what its IC50 is? The molecule is COc1cc(N/C=C\C(=O)c2cn(-c3ccccc3)nc2-c2ccccc2)cc(OC)c1OC
Found: 36.2
